biological target: pooled human IgG (human IgG1,2,3 and 4)
property label: Enzyme Activity Endpoint Assay (purified): IgG (ng/µL)
Answers are plain numbers, in ng/µL.

query: Request the reported Enzyme Activity Endpoint Assay (purified): IgG associated with PRT-338 (protein) MTITSVWTKGVTPPTPEDFRENNEDVLHAPYLANQGWYDITKAFDGKDNLLCGAATAGNMLHWWFDQNKEEIERYLKKHPEKQKIIFNNQELFDVKAAIDTKDSQTNSKLFNYFRDKAFPNLSARQLGVMPDLVLDMFINGYYLNLGKTQSTDVNRPYQDKDKRGGIFDAVFTRGDQTTLLTARHDLKNKGLNEISDLIKQELTEGKALALSHTYANVSINHVINLWGADFDAEGNLEAIYVTDSDANASIGMKKYFVGRNAHGKVAISAKKIEGDNIGAQVLGLFTLSLGQDIWQKLS
result: 0
